Below, each entry is listed alongside its reported growth.
System: NCI-H460 lung
Assay: NCI-60 one-dose screen, 48 h (100 = growth as untreated, 0 = no growth, -100 = all killed)
Details: 10 µM
This is part of a sample that, as a whole, favours compounds with a hit. Of some 83,000 tested, about 20% had one in any assay.
Observed Property: growth (%)

{"Molecule": "CCC(C)(C)C1CCC(O)CC1 (centres undefined)", "Observed Property": "growth", "Quantitative Result": 103}
{"Molecule": "O=C(O)/C=C/C(=O)NCc1ccccc1", "Observed Property": "growth", "Quantitative Result": 104}
{"Molecule": "Cc1cc(Cc2cc(C)c(N)cc2N)c(N)cc1N", "Observed Property": "growth", "Quantitative Result": 101}
{"Molecule": "c1c(-c2cc(C3CC3)[nH]n2)n[nH]c1C1CC1", "Observed Property": "growth", "Quantitative Result": 83.4}
{"Molecule": "O=[N+]([O-])c1ccc(O)c(S(=O)(=O)O)c1", "Observed Property": "growth", "Quantitative Result": 109}
{"Molecule": "NC(=S)NN=C1CCCC1", "Observed Property": "growth", "Quantitative Result": 104}
{"Molecule": "S=C(Nc1ccccc1)N1CCCCC1", "Observed Property": "growth", "Quantitative Result": 110}
{"Molecule": "CC(=O)c1cc2c(cc1F)C(C)(C)CCC2(C)C", "Observed Property": "growth", "Quantitative Result": 107}
{"Molecule": "CCCCCCCO", "Observed Property": "growth", "Quantitative Result": 110}
{"Molecule": "CC1(O)OC(COc2ccc(Cl)cc2)COC1O (centres undefined)", "Observed Property": "growth", "Quantitative Result": 106}
{"Molecule": "CN(C)CCC(=O)c1ccc(O)cc1", "Observed Property": "growth", "Quantitative Result": 103}
{"Molecule": "Cc1cc(=O)cc(C)n1-c1ccccc1", "Observed Property": "growth", "Quantitative Result": 107}
{"Molecule": "O=[N+]([O-])c1ccccc1N=Nc1ccc(O)cc1O", "Observed Property": "growth", "Quantitative Result": 115}
{"Molecule": "O=C1OC(c2ccc(F)cc2)CC1CN1CCOCC1 (centres undefined)", "Observed Property": "growth", "Quantitative Result": 108}

* * *

Test system: MOLT-4 leukemia
Experiment: NCI-60 one-dose screen, 48 h (100 = growth as untreated, 0 = no growth, -100 = all killed)
Details: 10 µM
Compounds without any hit were thinned out: in the full panel of roughly 83,000, 20% have a hit.
growth reference

{"Compound": "COc1ccccc1N1CCN(C(=S)Nc2ccccc2)CC1", "Readout Unit": "%", "growth": 78.7}
{"Compound": "C=CCNC(=O)c1ccc(OC)cc1", "Readout Unit": "%", "growth": 102}
{"Compound": "CC(C)NC(=O)OCc1c(COC(=O)NC(C)C)c(-c2ccc(Cl)c(Cl)c2)n2c1SCC2", "Readout Unit": "%", "growth": 17.1}
{"Compound": "O=[N+]([O-])c1ccc(CO)cc1", "Readout Unit": "%", "growth": 100}
{"Compound": "CC(C)OC(C(=O)O)c1ccccc1 (stereo unspecified)", "Readout Unit": "%", "growth": 125}
{"Compound": "N#CCCN(CCCN1CCOCC1)CN1C(=O)c2ccccc2C1=O", "Readout Unit": "%", "growth": 90.9}

* * *

Measured growth, listed per entry.
Tested on: NCI-H226 lung
Assay: NCI-60 one-dose screen, 48 h (100 = growth as untreated, 0 = no growth, -100 = all killed)
Settings: 10 µM
The panel holds about 83,000 compounds, 20% with a hit somewhere; the sample as a whole holds those more often.

{"Molecule": "NC(=O)c1ccc(N=C(N)N=C(N)N)cc1", "Experimental Target": "NCI-H226 lung", "growth / %": 84.1}
{"Molecule": "CC(=O)c1cc2c(cc1F)C(C)(C)CCC2(C)C", "Experimental Target": "NCI-H226 lung", "growth / %": 96.9}
{"Molecule": "Cc1cc(O)ccc1O", "Experimental Target": "NCI-H226 lung", "growth / %": 96.1}
{"Molecule": "Nc1nc(N)c2cc(S(=O)(=O)c3cccc(C(F)(F)F)c3)ccc2n1", "Experimental Target": "NCI-H226 lung", "growth / %": 69.2}
{"Molecule": "O=C(O)/C=C/c1ccc2c(c1)CCC2", "Experimental Target": "NCI-H226 lung", "growth / %": 105}
{"Molecule": "O=c1cc(-c2ccccc2)[nH]c2c1CCCC2", "Experimental Target": "NCI-H226 lung", "growth / %": 54.3}
{"Molecule": "CC(=O)OCCC(C)CCC=C(C)C (centres undefined)", "Experimental Target": "NCI-H226 lung", "growth / %": 105}
{"Molecule": "CC1(C)N=C(N)N=C(N)N1c1cccc(Br)c1", "Experimental Target": "NCI-H226 lung", "growth / %": 58.8}
{"Molecule": "COc1cc([C@@H]2c3cc4c(cc3[C@H](O)[C@H]3COC(=O)[C@H]23)OCO4)cc(OC)c1OC", "Experimental Target": "NCI-H226 lung", "growth / %": -9.84}
{"Molecule": "COC(=O)Nc1nc2ccc(C(=O)c3ccc(F)cc3)cc2[nH]1", "Experimental Target": "NCI-H226 lung", "growth / %": 145}
{"Molecule": "CC(=O)Nc1c(C)cc(C)cc1C", "Experimental Target": "NCI-H226 lung", "growth / %": 101}
{"Molecule": "Cc1cc2nc(CC(=O)c3cccc([N+](=O)[O-])c3)c(=O)[nH]c2cc1C", "Experimental Target": "NCI-H226 lung", "growth / %": 90.7}
{"Molecule": "CCCCOC(OCCCC)c1ccccc1", "Experimental Target": "NCI-H226 lung", "growth / %": 107}
{"Molecule": "Nc1ccc(NC(=O)c2cccc(N)c2)cc1", "Experimental Target": "NCI-H226 lung", "growth / %": 99.1}
{"Molecule": "Cc1cc(/C=C/c2ccc3cc(N(C)C)ccc3[n+]2C)c(C)n1-c1ccccc1", "Experimental Target": "NCI-H226 lung", "growth / %": -75.1}
{"Molecule": "O=C(O)/C=C/C(=O)NCc1ccccc1", "Experimental Target": "NCI-H226 lung", "growth / %": 98.4}
{"Molecule": "CCCCNC(=O)C(=O)NCCCC", "Experimental Target": "NCI-H226 lung", "growth / %": 106}
{"Molecule": "O=C1C=CC(=O)N1c1ccc(I)cc1Cl", "Experimental Target": "NCI-H226 lung", "growth / %": 108}
{"Molecule": "Cc1c(O)cccc1O", "Experimental Target": "NCI-H226 lung", "growth / %": 93.4}
{"Molecule": "CC(CC(=O)c1ccccc1)c1ccccc1 (centres undefined)", "Experimental Target": "NCI-H226 lung", "growth / %": 98.4}
{"Molecule": "CC(=O)c1sc2c(c1OC(=O)c1ccc(Cl)cc1Cl)c(=O)n(-c1ccccc1)c(=S)n2-c1ccccc1", "Experimental Target": "NCI-H226 lung", "growth / %": 3.85}
{"Molecule": "CCOC(=O)CCCS(C)(=O)=O", "Experimental Target": "NCI-H226 lung", "growth / %": 109}
{"Molecule": "NC(=S)CN1CCOCC1", "Experimental Target": "NCI-H226 lung", "growth / %": 114}
{"Molecule": "Clc1ccc(-c2n[nH]c3c2Cc2ccccc2-3)cc1Cl", "Experimental Target": "NCI-H226 lung", "growth / %": 94.4}
{"Molecule": "CN(C)CCN(C)CC(C)(C)C(=O)/C=C/c1ccc(Cl)cc1", "Experimental Target": "NCI-H226 lung", "growth / %": -3.14}
{"Molecule": "O=C(N/N=C\\c1cc(Br)cc(Br)c1O)N/N=C/c1cc(Br)cc(Br)c1O", "Experimental Target": "NCI-H226 lung", "growth / %": 50.6}
{"Molecule": "CC(C)C(C#N)(C(C)C)C(C)C", "Experimental Target": "NCI-H226 lung", "growth / %": 104}
{"Molecule": "Cc1cccc(CO)c1", "Experimental Target": "NCI-H226 lung", "growth / %": 99}
{"Molecule": "CC1(O)OC(COc2ccc(Cl)cc2)COC1O (centres undefined)", "Experimental Target": "NCI-H226 lung", "growth / %": 102}
{"Molecule": "Oc1ccc(O)cc1", "Experimental Target": "NCI-H226 lung", "growth / %": 110}
{"Molecule": "C=CCCCCCCCCCOC(C)=O", "Experimental Target": "NCI-H226 lung", "growth / %": 96.7}
{"Molecule": "Cc1cccc([N+](=O)[O-])c1Cl", "Experimental Target": "NCI-H226 lung", "growth / %": 98.2}
{"Molecule": "CC1CC(O)CC(C)(C)C1 (centres undefined)", "Experimental Target": "NCI-H226 lung", "growth / %": 106}
{"Molecule": "S=c1[nH]ccn1-c1ccccc1Cl", "Experimental Target": "NCI-H226 lung", "growth / %": 113}
{"Molecule": "O=c1[nH]c(O)c(/C=C2/C=Nc3ccccc32)[nH]1", "Experimental Target": "NCI-H226 lung", "growth / %": 92.1}
{"Molecule": "CC(C)NC(=O)OCc1c(COC(=O)NC(C)C)c(-c2ccc(Cl)c(Cl)c2)n2c1SCC2", "Experimental Target": "NCI-H226 lung", "growth / %": -43.7}
{"Molecule": "O=C(NCCNC(=O)c1ccc(Cl)cc1Cl)c1ccc(Cl)cc1Cl", "Experimental Target": "NCI-H226 lung", "growth / %": 101}
{"Molecule": "CCOC(=O)CSc1c([N+](=O)[O-])ncn1C", "Experimental Target": "NCI-H226 lung", "growth / %": 105}
{"Molecule": "Oc1ccc(N=Nc2ccc(Br)cc2)c(O)c1", "Experimental Target": "NCI-H226 lung", "growth / %": 83.6}
{"Molecule": "c1cc[n+](C2c3ccccc3C([n+]3ccccc3)c3ccccc32)cc1 (centres undefined)", "Experimental Target": "NCI-H226 lung", "growth / %": 49.6}
{"Molecule": "CCOC(=O)c1cc(/C=C/c2ccc(Cl)cc2Cl)on1", "Experimental Target": "NCI-H226 lung", "growth / %": 14.9}
{"Molecule": "CC(=O)c1ccc2c(ccc3ccccc32)c1", "Experimental Target": "NCI-H226 lung", "growth / %": 94}
{"Molecule": "COc1nc(N)nc2c1ncn2C1OC(CO)CC1O (centres undefined)", "Experimental Target": "NCI-H226 lung", "growth / %": 103}
{"Molecule": "CCCC1(c2ccccc2)NC(=O)NC1=O (centres undefined)", "Experimental Target": "NCI-H226 lung", "growth / %": 97}
{"Molecule": "Cc1cc2nc(CO)[nH]c2cc1C", "Experimental Target": "NCI-H226 lung", "growth / %": 108}
{"Molecule": "NC(=O)N/N=C\\c1ccco1", "Experimental Target": "NCI-H226 lung", "growth / %": 102}
{"Molecule": "COc1ccc(NC(=O)CCl)cc1", "Experimental Target": "NCI-H226 lung", "growth / %": 82.5}
{"Molecule": "S=C(Nc1ccccc1)N1CCCCC1", "Experimental Target": "NCI-H226 lung", "growth / %": 89.6}
{"Molecule": "COc1cc(/C=N\\Nc2ccccc2)ccc1OC(=O)c1ccccc1", "Experimental Target": "NCI-H226 lung", "growth / %": 74.9}
{"Molecule": "Nc1ccc(N=Nc2ccc(O)cc2)c(N)n1", "Experimental Target": "NCI-H226 lung", "growth / %": 75.8}
{"Molecule": "O=C1NC(=O)C2C(=O)NC(=O)C1C21CCc2ccccc21 (centres undefined)", "Experimental Target": "NCI-H226 lung", "growth / %": 87.7}
{"Molecule": "Brc1cnc2ccccc2c1", "Experimental Target": "NCI-H226 lung", "growth / %": 105}
{"Molecule": "CN(C)CCN(Cc1ccccc1)c1ccccc1", "Experimental Target": "NCI-H226 lung", "growth / %": 109}
{"Molecule": "Cc1cc(=O)[nH]c(NN=C2CCCC2)n1", "Experimental Target": "NCI-H226 lung", "growth / %": 101}
